Source: patent EP4737450A1

target: plasma kallikrein (PKa) (Homo sapiens); construct: purchased R & D 2497-SE; assay: Inhibitory activity against plasma kallikrein in vitro (fluorescence intensity enzyme assay, Pro-Phe-Arg-AMC substrate); assay type: biochemical; conditions: plasma kallikrein enzyme assay, Pro-Phe-Arg-AMC substrate; read-out: PKa IC50
pIC50: −log10 of the molar value.
# pIC50 values compiled below

COCc1nn(Cc2ccc(N3CCCCC3=O)cc2C#N)cc1C(=O)NCc1nccc(OC)c1F : < 6.00
COCc1nn(Cc2ccc(-n3ccccc3=O)cc2)cc1C(=O)NCc1cn2c(n1)CNCC2 : < 6.00
COCc1nn(Cc2ccc(N3CCOCC3=O)cc2)cc1C(=O)NCc1cn2c(n1)CNCC2 : < 7.00

Now turn to the next compound.
Sample `CC(C)CNc1ccnc(CNC(=O)c2cn(Cc3ccc(Cn4ccccc4=O)cc3)nc2N2CC(F)(F)C2)c1F` — what was its pIC50? < 6.00

* * *

target: plasma kallikrein (PKa) (Homo sapiens, UniProt P03952); construct: purchased R & D 2497-SE; assay: Inhibitory activity against plasma kallikrein in vitro (fluorescence intensity enzyme assay, Pro-Phe-Arg-AMC substrate); assay type: biochemical; conditions: plasma kallikrein enzyme assay, Pro-Phe-Arg-AMC substrate; read-out: PKa IC50
Sequence (P03952 391-638 limits assumed): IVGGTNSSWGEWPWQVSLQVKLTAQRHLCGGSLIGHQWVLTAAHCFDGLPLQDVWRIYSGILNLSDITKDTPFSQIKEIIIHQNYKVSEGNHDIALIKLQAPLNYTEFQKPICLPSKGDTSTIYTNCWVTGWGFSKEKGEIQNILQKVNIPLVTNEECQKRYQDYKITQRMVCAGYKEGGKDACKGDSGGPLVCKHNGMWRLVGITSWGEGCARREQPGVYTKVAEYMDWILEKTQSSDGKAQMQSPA
Sequence (P03952 20-390 partner limits assumed): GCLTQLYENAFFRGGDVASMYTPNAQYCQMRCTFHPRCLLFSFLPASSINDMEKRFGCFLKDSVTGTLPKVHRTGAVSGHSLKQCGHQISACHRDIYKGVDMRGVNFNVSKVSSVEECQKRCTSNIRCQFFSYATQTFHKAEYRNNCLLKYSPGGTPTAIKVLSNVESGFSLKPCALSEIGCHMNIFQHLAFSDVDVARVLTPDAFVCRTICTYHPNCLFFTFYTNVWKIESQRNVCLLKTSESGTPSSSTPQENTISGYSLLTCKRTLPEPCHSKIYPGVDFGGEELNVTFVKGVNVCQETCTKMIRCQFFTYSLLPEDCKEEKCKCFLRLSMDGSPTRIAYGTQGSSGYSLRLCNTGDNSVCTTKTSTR
Reported pIC50 is given for each of the following compounds.
Please express pIC50 as -log10 of the molar concentration.

Some entries whose results are on file:
N=C(N)c1ccc(CNC(=O)c2cnn(Cc3ccc(Cn4ccccc4=O)cc3)c2)cc1 [Compound 12] : 8.79
Cc1cc(N)nc(C)c1CNC(=O)c1ncn(Cc2c(F)c(F)c(Cn3ccccc3=O)c(F)c2F)n1 [Compound 22] : 9.20
Nc1cc2c(cn1)[C@@H](NC(=O)c1ncn(Cc3ccc(Cn4ccccc4=O)cc3)n1)CO2 [Compound 82] : 7.58

Entry Cc1cc(N)nc(C)c1CNC(=O)c1nsc(Cc2ccc(Cn3ccccc3=O)cc2)n1 [Compound 67] , system plasma kallikrein (PKa) (Homo sapiens, UniProt P03952): what pIC50 was measured? 9.54

Ok, now CNc1ccnc(CNC(=O)c2cn(Cc3ccc(Cn4ccccc4=O)cc3)nc2C2COC2)c1F [Compound 260] 8.11

Do the same for COc1ccnc(CNC(=O)c2cn(Cc3ccc(Cn4ccccc4=O)cc3)nc2N2CCOCC2)c1F [Compound 224] please 7.55
